target_under_test: TGF-beta receptor type-1 (Homo sapiens)
Sequence (P36897 whole entry): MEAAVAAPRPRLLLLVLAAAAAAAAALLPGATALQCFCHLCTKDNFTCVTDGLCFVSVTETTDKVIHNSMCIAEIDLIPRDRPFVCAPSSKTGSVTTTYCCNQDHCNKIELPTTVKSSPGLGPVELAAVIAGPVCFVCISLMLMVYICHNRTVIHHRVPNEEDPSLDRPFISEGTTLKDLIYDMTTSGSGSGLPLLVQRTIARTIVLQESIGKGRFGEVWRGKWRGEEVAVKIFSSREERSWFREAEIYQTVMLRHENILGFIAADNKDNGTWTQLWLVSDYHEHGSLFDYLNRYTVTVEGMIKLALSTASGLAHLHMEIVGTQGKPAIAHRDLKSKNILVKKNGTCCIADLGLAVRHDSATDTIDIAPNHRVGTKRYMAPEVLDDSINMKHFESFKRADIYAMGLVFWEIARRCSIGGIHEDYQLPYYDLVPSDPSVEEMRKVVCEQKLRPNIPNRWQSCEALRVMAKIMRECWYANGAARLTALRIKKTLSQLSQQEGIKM
method_notes: Inhibition of recombinant human TGFbeta R1 expressed in Sf9 cells
measured_quantity: pIC50
Scale note: pIC50 = -log10(concentration in M).

API: value(readout=pIC50, system=TGF-beta receptor type-1 (Homo sapiens)) for record c1ccc(-c2nn3c(c2-c2ccc4ncn(CCCN5CCCC5)c4c2)CCC3)nc1
6.61

Also OCCCn1cnc2ccc(-c3c(-c4ccccn4)nn4c3CCC4)cc21 ?
7.10

Same lookup for Cc1cccc(-c2nn3c(c2-c2ccc4nc[nH]c4c2)CCC3)n1 , please.
7.33

Entry Cc1cccc(-c2nn3c(c2-c2ccc4ncn(CCCN5CCCC5)c4c2)CCC3)n1 please
7.13

Now the same for Cn1cnc2cc(-c3c(-c4ccccn4)nn4c3CCC4)ccc21
5.32

###

method_notes: Inhibitory activity against TGF-beta-stimulated proliferation in NIH3T3 cells
Assay type: functional, cell-based
particulars: Mus musculus
measured_quantity: log10 IC50 (log10 of the value in nM)
On a log10 scale: recorded IC50, unit nM.

OCCCn1cnc2ccc(-c3c(-c4ccccn4)nn4c3CCC4)cc21 :: 2.57
c1ccc(-c2nn3c(c2-c2ccc4c(c2)ncn4CCCOC2CCCCO2)CCC3)nc1 (stereo not given) :: 3.67
Cc1cccc(-c2nn3c(c2-c2ccc4nc[nH]c4c2)CCC3)n1 :: 1.62
Cc1cccc(-c2nn3c(c2-c2ccc4ncn(CCCN5CCOCC5)c4c2)CCC3)n1 :: 2.44

Could you tell me which log10 IC50 is on file for c1ccc(-c2nn3c(c2-c2ccc4ncn(CCCN5CCCC5)c4c2)CCC3)nc1 ?
2.93

###

We begin with a simple list: items and their reported IC50.
target_under_test: TGF-beta receptor type-2 (Homo sapiens)
Sequence (P37173 whole entry): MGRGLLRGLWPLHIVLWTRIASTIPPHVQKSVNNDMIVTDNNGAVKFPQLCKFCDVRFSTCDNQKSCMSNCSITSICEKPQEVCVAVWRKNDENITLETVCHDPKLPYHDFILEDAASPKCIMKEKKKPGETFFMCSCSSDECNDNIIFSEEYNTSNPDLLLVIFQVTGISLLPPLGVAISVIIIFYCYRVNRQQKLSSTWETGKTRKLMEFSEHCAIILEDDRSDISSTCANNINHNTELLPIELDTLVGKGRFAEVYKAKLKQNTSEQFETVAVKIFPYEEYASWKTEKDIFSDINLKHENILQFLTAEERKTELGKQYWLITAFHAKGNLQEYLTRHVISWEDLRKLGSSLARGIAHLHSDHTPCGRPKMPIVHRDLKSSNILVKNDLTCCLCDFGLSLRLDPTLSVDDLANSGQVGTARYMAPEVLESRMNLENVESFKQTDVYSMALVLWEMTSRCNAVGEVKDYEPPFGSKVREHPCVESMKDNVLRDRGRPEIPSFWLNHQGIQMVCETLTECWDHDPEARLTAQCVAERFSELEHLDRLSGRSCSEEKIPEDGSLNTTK
method_notes: Inhibition of recombinant human TGFbeta R2 expressed in Sf9 cells
Hi! Could you send only the number? It should be in µM, unit omitted.

Examples from the recorded data:
Cc1cccc(-c2nn3c(c2-c2ccc4ncn(CCCN5CCOCC5)c4c2)CCC3)n1 :: 19.8
c1ccc(-c2nn3c(c2-c2ccc4[nH]cnc4c2)CCC3)nc1 :: 8.73
Cc1cccc(-c2nn3c(c2-c2ccc4ncn(C)c4c2)CCC3)n1 :: 0.668

Then there is this compound:
Value lookup for IC50; key = Cc1cccc(-c2nn3c(c2-c2ccc4nc[nH]c4c2)CCC3)n1
1.3
